test system: HCC-2998 colon; assay: NCI-60 one-dose screen, 48 h (100 = growth as untreated, 0 = no growth, -100 = all killed); details: 10 µM unless noted
About 83,000 compounds went through this panel and 20% of them were active in at least one assay; those are over-represented in the sample as a whole.
Doc: threshold 50% (exclusive). Items with growth beneath it return True; others return False.

// query For "NS(=O)(=O)c1ccc(N/C=C/C(=O)c2cc3ccccc3oc2=O)cc1" , is the recorded growth below the cut-off of 50%?
// result False

// query For "O=C1/C(=C/c2ccccc2[N+](=O)[O-])COc2ccc(O)cc21" , is the recorded growth below the cut-off of 50%?
// result True

// query For "CN1CCN(CCOc2ccc(-c3cnc4c(-c5ccc(C(F)(F)F)cc5)cnn4c3)cc2)CC1" , is the recorded growth below the cut-off of 50%?
// result True

// query For CCN(CCO)CC(C)Nc1ccc([N+](=O)[O-])c2sc3ccccc3c(=O)c12 (stereo not given) , is the recorded growth below the cut-off of 50%?
// result True

* * *

test system: HOP-62 NSCLC; experiment: NCI-60 one-dose screen, 48 h (100 = growth as untreated, 0 = no growth, -100 = all killed); details: 10 µM unless noted
The panel holds about 83,000 compounds, 20% with a hit somewhere; the sample as a whole holds those more often.
Lab note: anything with growth at or over 40% counts as 1; the rest go in 0.

// query State whether the measured growth reaches 40%, counting equality as reaching it, for CN(Cc1cnc2nc(N)nc(N)c2n1)c1c(Cl)cc(C(=O)NC(CCC(=O)O)C(=O)O)cc1Cl (stereo unspecified)
// result 0

// query State whether the measured growth reaches 40%, counting equality as reaching it, for O=C1OCC2=C1C(c1cccc(C(F)(F)F)c1)c1cc3c(cc1N2CCO)OCO3 (stereo unspecified)
// result 0

// query State whether the measured growth reaches 40%, counting equality as reaching it, for "C=NNc1ccccc1"
// result 1

// query State whether the measured growth reaches 40%, counting equality as reaching it, for "COc1ccc(-c2ccc(-c3ccc(C(=N)N)cn3)s2)cc1"
// result 1

// query State whether the measured growth reaches 40%, counting equality as reaching it, for "C/C(=C(\c1ccc(OCCN2CCCCCC2)cc1)c1ccc(OC(=O)Cc2ccccc2)cc1)c1ccc(Cl)cc1"
// result 0

// query State whether the measured growth reaches 40%, counting equality as reaching it, for "O=C1c2cc3c(cc2-c2c1c1ccc(Cl)cc1c(=O)n2C[C@H](O)CO)OCO3"
// result 0

// query State whether the measured growth reaches 40%, counting equality as reaching it, for "Cc1nc2ccccc2c(/C=C/c2ccc(C(F)(F)F)cc2)c1C(=O)/C=C/c1ccccc1"
// result 0

// query State whether the measured growth reaches 40%, counting equality as reaching it, for COc1ccc(C2=CN3CC=CCC3CC2=O)cc1 (stereo unspecified)
// result 1

// query State whether the measured growth reaches 40%, counting equality as reaching it, for "Fc1ccc(CNc2c3ccccc3nc3ccccc23)cc1"
// result 1

// query State whether the measured growth reaches 40%, counting equality as reaching it, for "O=C1/C=C/[C@@H](O)[C@@H]2C[C@@H](O)C[C@H]2/C=C/CCC[C@H](CCOCc2ccccc2)O1"
// result 0

// query State whether the measured growth reaches 40%, counting equality as reaching it, for O=C1Nc2ccccc2C2c3cccn3-c3ccccc3N12 (stereo unspecified)
// result 1

// query State whether the measured growth reaches 40%, counting equality as reaching it, for CCCCCCC(CCCC)COC(=O)c1ccc(Cl)cc1 (stereo unspecified)
// result 1

// query State whether the measured growth reaches 40%, counting equality as reaching it, for "COC(=O)c1c2c(c(C)[n+]([O-])c1C)C(=O)C=CC2=O"
// result 0

// query State whether the measured growth reaches 40%, counting equality as reaching it, for "c1ccc2cc(Cn3c[n+](Cc4ccc5ccccc5c4)c4ccccc43)ccc2c1"
// result 0

// query State whether the measured growth reaches 40%, counting equality as reaching it, for "Cc1cc(C(=O)Nc2cc(Nc3ncccc3-c3ncnc4nc[nH]c34)ccc2F)cc(C(F)(F)F)c1"
// result 0

// query State whether the measured growth reaches 40%, counting equality as reaching it, for "Cn1cc(-c2ccc3cc(-c4ccc(CC(=O)Nc5cc(C(C)(C)C)on5)cc4)cnc3c2)cn1"
// result 1

// query State whether the measured growth reaches 40%, counting equality as reaching it, for COc1ccc(C2=NN(C(=O)c3cc(OC)c(OC)c(OC)c3)C(c3ccc(N(C)C)cc3)C2)cc1 (stereo unspecified)
// result 1

// query State whether the measured growth reaches 40%, counting equality as reaching it, for CC1COCC(C)N1C1=C(Cl)C(=O)c2ccccc2C1=O (stereo unspecified)
// result 1

// query State whether the measured growth reaches 40%, counting equality as reaching it, for COc1ccc(NC(=O)c2sc3nc(C)c(C(O)c4ccccc4)cc3c2N)cc1 (stereo unspecified)
// result 0

// query State whether the measured growth reaches 40%, counting equality as reaching it, for "COc1ccc(C/C(C)=C(\c2ccc(O)cc2)c2ccc(OCCN3CCCC3)cc2)cc1"
// result 1

// query State whether the measured growth reaches 40%, counting equality as reaching it, for "CN(C)c1ccc(/C=C2/C=C(c3ccccc3)OC2=O)cc1"
// result 1
